Each entry below lists one item and its recorded Ki value.
# target_under_test: Metabotropic glutamate receptor 5 (Rattus norvegicus)
# method_notes: rat mGlu5 radioligand displacement Ki – biochemical, HEK293A membranes, [3H]methoxyPEPy, full curve, dose response (AID 652196)
# assay_context: rmGlu5 HEK293A membranes, [3H]methoxyPEPy displacement

For orientation, consider the following solved cases.
molecule	Ki
O=C(c1ccc(C#Cc2cccc(F)c2)cc1)N1CCC1	29.6 nM
O=C(c1ccc(C#Cc2cccc(F)c2)cn1)N1CCCCCC1	18.7 nM
CC1CCN1C(=O)c1ccc(C#Cc2cccc(F)c2)cn1 (centres undefined)	5.4 nM

Next:
Task: Give the measured Ki for O=C(c1ccc(C#Cc2cccc(F)c2)cn1)N1CCC(F)(F)C1
Output: 19 nM

* * *

# target_under_test: Metabotropic glutamate receptor 5 (Rattus norvegicus)
# method_notes: rat mGlu5 radioligand displacement Ki – biochemical, HEK293A membranes, [3H]methoxyPEPy, full curve, dose response (AID 652196)
# assay_context: rmGlu5 HEK293A membranes, [3H]methoxyPEPy displacement
Listing of recorded pKi by entry.
As a rule, pKi stands for the negative log10 of the concentration, concentration in M.

Completed entries (count: 4):
molecule	pKi
O=C(c1ccc(C#Cc2cccc(F)c2)cn1)N1CCC1	7.29
O=C(c1ccc(C#Cc2cccc(F)c2)cn1)N1CCCCC1	7.92
O=C(c1ccc(C#Cc2cccc(F)c2)cn1)N1CC2CC2C1 (stereo not given)	7.74
O=C(c1ccc(C#Cc2cccc(F)c2)cn1)N1CC(F)C1	7.31

Task: Provide only the value of recorded pKi for O=C(c1ccc(C#Cc2cccc(F)c2)cn1)N1CCOCC1
Output: 7.17
